Cited source for all entries: ChEMBL document CHEMBL3286164

Molecular target: Nuclear factor NF-kappa-B complex (Homo sapiens, UniProt P19838+Q00653+Q04206)
Sequence (P19838 1-433 limits assumed): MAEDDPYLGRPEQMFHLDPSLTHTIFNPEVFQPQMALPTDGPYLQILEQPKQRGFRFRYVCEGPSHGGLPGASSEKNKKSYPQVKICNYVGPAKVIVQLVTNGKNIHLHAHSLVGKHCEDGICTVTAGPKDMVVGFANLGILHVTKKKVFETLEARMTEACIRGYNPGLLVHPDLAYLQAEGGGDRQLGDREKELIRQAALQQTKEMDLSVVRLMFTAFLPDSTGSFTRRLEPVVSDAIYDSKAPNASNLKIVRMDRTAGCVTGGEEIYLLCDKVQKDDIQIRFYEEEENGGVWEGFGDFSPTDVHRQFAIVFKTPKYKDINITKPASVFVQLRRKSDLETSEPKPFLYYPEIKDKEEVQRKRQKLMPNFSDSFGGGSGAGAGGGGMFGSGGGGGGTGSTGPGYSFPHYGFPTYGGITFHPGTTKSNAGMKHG
Sequence (Q00653 1-454 limits assumed): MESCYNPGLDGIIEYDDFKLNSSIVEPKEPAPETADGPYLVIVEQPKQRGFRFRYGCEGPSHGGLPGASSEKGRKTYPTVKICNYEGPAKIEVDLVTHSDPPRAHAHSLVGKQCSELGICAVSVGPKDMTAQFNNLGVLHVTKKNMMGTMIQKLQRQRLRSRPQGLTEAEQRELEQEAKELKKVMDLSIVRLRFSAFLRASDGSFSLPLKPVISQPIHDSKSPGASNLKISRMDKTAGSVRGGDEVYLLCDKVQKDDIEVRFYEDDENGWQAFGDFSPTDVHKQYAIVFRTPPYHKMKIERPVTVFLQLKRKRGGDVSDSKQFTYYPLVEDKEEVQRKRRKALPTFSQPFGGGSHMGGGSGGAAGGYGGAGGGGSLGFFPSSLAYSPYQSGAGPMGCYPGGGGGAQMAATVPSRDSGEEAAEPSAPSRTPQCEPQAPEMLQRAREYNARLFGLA
Sequence (Q04206 whole entry): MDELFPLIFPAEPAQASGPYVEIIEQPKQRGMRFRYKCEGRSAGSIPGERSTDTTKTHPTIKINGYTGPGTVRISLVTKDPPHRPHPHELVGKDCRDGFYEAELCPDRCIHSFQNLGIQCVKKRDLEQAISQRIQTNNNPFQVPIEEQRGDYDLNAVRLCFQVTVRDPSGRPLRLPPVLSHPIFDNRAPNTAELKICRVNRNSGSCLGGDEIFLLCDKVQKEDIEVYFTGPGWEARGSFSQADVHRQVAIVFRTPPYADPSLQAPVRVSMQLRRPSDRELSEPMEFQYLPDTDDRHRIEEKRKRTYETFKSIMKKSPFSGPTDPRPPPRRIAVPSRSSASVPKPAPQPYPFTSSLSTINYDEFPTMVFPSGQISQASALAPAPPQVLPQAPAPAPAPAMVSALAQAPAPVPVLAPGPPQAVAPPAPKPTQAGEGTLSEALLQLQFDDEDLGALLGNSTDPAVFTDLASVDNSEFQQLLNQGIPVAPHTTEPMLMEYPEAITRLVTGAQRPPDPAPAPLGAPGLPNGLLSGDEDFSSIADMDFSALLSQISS
Test: Inhibition of NF-kappaB in human THP1 cells incubated for 2 hrs prior to LPS challenge measured after 16 hrs by SEAP assay
test_readout: pIC50
Quick note: pIC50 means taking -log10 of the concentration in moles per liter.

Given CCC(CC)COc1cccc(O)c1C(=O)/C=C/c1ccc(O)cc1 , state its recorded pIC50.
4.92

Would you kindly share the measured pIC50 for O=C(/C=C/c1ccc(O)cc1)c1c(O)cccc1OCC1CCCC1 ?
4.89

// query pIC50 value for entry CC(C)(C)CCOc1cccc(O)c1C(=O)/C=C/c1ccc(O)cc1
5.52
